Target: GLP-1 Receptor (Homo sapiens)
Sequence (P43220 24-463): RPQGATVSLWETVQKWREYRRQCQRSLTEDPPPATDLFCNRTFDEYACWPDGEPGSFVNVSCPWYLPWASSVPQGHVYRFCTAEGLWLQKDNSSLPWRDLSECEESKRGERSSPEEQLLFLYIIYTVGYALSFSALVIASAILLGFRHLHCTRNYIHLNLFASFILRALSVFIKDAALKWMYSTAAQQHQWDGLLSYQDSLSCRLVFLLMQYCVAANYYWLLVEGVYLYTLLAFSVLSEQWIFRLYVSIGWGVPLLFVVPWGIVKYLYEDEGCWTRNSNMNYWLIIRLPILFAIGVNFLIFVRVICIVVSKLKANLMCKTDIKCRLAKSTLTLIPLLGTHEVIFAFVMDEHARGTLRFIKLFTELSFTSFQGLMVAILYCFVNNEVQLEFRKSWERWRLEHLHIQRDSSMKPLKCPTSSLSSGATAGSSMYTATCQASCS
Assay: GLP-1R agonist cAMP stimulation assay, Method 2 (HDB HEK293/GLP1R/CRE-LUC, Cisbio cAMP dynamic 2 kit)
Assay type: cell-based
Conditions: HEK293/GLP1R/CRE-LUC cells (HD Biosciences); 30 min at 37° C.; 0.5 mM IBMX, 0.1% BSA; geometric mean where n>=2; read-out: GLP1R cAMP Stimulation DR: EC50 (nM) Method 2 (HDB)
measure name: EC50 (nM)

// known answers, use as guide
[[record]]
molecule = "O=C(O)c1ccc2nc(CC3CC=C(c4ccc(F)c(OCc5ccc(Cl)cc5F)n4)CC3)n(C[C@@H]3CCO3)c2n1 (stereo partly drawn) [Compound 113a]"
system_tested = "GLP-1 Receptor (Homo sapiens)"
measure_name = "EC50"
units = "nM"
result_number = 0.015

[[record]]
molecule = "N#Cc1ccc(COc2cccc(C3=CCC(Cc4nc5ccc(C(=O)O)nc5n4C[C@@H]4CCO4)CC3)n2)c(F)c1 (single isomer, unassigned) [Compound 101c]"
system_tested = "GLP-1 Receptor (Homo sapiens)"
measure_name = "EC50"
units = "nM"
result_number = 0.083

[[record]]
molecule = "Cc1c(-c2cccc(OCc3ccc(Cl)cc3F)n2)ccn(Cc2nc3ccc(C(=O)O)nc3n2C[C@@H]2CCO2)c1=O [Compound 105aw]"
system_tested = "GLP-1 Receptor (Homo sapiens)"
measure_name = "EC50"
units = "nM"
result_number = 7.1

[[record]]
molecule = "O=C(O)c1ccc2nc(Cc3ccc(-c4nccc(OCc5ccccc5)n4)cc3)n(C[C@@H]3CCO3)c2n1 [Compound 102aw]"
system_tested = "GLP-1 Receptor (Homo sapiens)"
measure_name = "EC50"
units = "nM"
result_number = 1.9

[[record]]
molecule = "N#Cc1ccc(COc2nc(C3=CCC(Cc4nc5ccc(C(=O)O)nc5n4CC4(C#N)CC4)CC3)ncc2F)c(F)c1 (stereo not drawn) [Compound 123]"
system_tested = "GLP-1 Receptor (Homo sapiens)"
measure_name = "EC50"
units = "nM"
result_number = 0.067

[[record]]
molecule = "O=C(O)c1ccc2nc(COc3cc(-c4cccc(OCc5ccc(Cl)cc5F)c4)ccn3)n(C[C@@H]3CCO3)c2n1 [Compound 110aw]"
system_tested = "GLP-1 Receptor (Homo sapiens)"
measure_name = "EC50"
units = "nM"
result_number = 88


(A) O=C(O)c1ccc2nc(CC3CC=C(c4ncc(F)c(OCc5ccc(Cl)cc5F)n4)CC3)n(C[C@@H]3CCO3)c2n1 (single isomer, unassigned) [Compound 114b]
(B) O=C(O)c1ccc2nc(Cn3ccc(-c4cccc(OCc5ccc(Cl)cc5F)n4)cc3=O)n(C[C@@H]3CCO3)c2n1 [Compound 103aw]
Field: lower EC50 | Options: A / B Write down the label of the entry you select. A
